- tested-on: DRB5*0101 (Homo sapiens, UniProt P01903+Q30154)
- assay-text: biochemical
- test-context: Binding affinity DRB5 *0101
quantity-name: IC50

# compound, tested-on, readout-value
data = [
    ("CC[C@H](C)[C@H](NC(=O)[C@H](CO)NC(=O)[C@@H](NC(=O)CNC(=O)[C@H](CCC(=O)O)NC(=O)[C@@H]1CCCN1)C(C)C)C(=O)N[C@@H](Cc1c[nH]c2ccccc12)C(=O)N[C@@H](CC(N)=O)C(=O)N1CCC[C@H]1C(=O)N[C@H](C(=O)N[C@@H](CC(C)C)C(=O)N[C@@H](CC(C)C)C(=O)N[C@@H](Cc1c[nH]c2ccccc12)C(=O)N[C@@H](CCC(N)=O)C(=O)N1CCC[C@H]1C(=O)O)[C@@H](C)CC [Peptide 68.0033]", "DRB5*0101 (Homo sapiens, UniProt P01903+Q30154)", "> 20 µM"),
]

Next compound, IC50 to be filled in.
GET /values?readout=IC50&item= CC(C)C[C@H](NC(=O)[C@H](CCC(N)=O)NC(=O)[C@H](CC(=O)O)NC(=O)[C@H](CCC(=O)O)NC(=O)[C@H](CO)NC(=O)[C@H](CC(C)C)NC(=O)[C@@H]1CCCN1C(=O)[C@@H](NC(=O)[C@@H](N)[C@@H](C)O)C(C)C)C(=O)N[C@@H](CC(C)C)C(=O)N[C@@H](Cc1ccc(O)cc1)C(=O)N[C@@H](CC(C)C)C(=O)N1CCC[C@H]1C(=O)N[C@@H](Cc1ccccc1)C(=O)N[C@@H](CCCNC(=N)N)C(=O)O [Peptide 68.0147]
> 20 µM
